Overview of reported pIC50 across a group of binders:
Biological target: T1, PVRIG (FACS-based competition assay of FIGS. 7 and 15) (Homo sapiens, UniProt Q6DKI7)
T1 construct: made because the format of the assay is only described in U.S. Ser. No. 15/048,967; also called human PVRIG
T1 sequence (receptor, looked up): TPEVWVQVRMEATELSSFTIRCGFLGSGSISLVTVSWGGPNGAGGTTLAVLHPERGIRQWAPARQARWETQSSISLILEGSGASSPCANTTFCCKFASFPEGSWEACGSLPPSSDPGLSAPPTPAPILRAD
Assay: FACS-based competition assay of PVRIG blocking; format and competitor not given
pIC50: −log10 of the molar value.
experimental endpoint: pIC50

binder	experimental endpoint	quantitative readout
CHA.7.508 (antibody, V domains shown) VH: EVQLQQSGPDLVKPGASMKISCKASGYTFIDYNIHWVKQSQGKSLDWIGYIYPYNGGTGYNQKFKNKATLTVDSSSSTAYMEVRSLTFEDSAVYFCAREADYYGNRGQFDYWGQGTLVTVSA VL: DIQMTQSPASLSVSVGETVTITCRASENIFSNLAWYQQKQGKSPQLLVYGEANLADGVPSRFSGSGSGTQYSLKINSLQSEDFGNYYCQHFWGTPYTFGGGTTLEIK	pIC50	7.42
CHA.7.528 (antibody, V domains shown) VH: EVQVQQSGPELVKPGASVKISCKASGYTFTKSNMHWVKQSHGKSLEWIGYIYPYNGGTGYNQNFKSKATLTVDISSSTAYMELRSLTLEDSAVYLCAREADYYGNRGQFDYWGQGTLVTVSA VL: DIQMTQSPASLSVSVGETVTITCRASDNIFSNLAWYHQKQGKSPHLLVYGATNLADGVPSRFSGSGSGTQYSLKINSLQSEDFGDYYCQHFWGTPYTFGGGTKLEIK	pIC50	7.54
CHA.7.510 (antibody, V domains shown) VH: QVTLKESGPGILQPSQTLSLTCSFSGFSLNTSGTGVGWIRQPSGKGLEWLTHIWWNDNKFYNTFLKSRLTISKETSNNQVFLKIASVDTADAATYYCARMAYGNLWFVNWGQGTLVAVST VL: DIVLTQSPASLAVSLGQRASISCRASRSVTISGYSYMYWYQQKPGQPPRLLFYLASNLASGVPARFSGSGSGTDFTLNIHPVEEEDAAIYYCQHSRELPYTFGGGTKLEIK	pIC50	7.26
